Data origin: ChEMBL document CHEMBL1131475

Test protocol: in vivo; also: test concentration or dose not given here
Measurement parameters: rat, plasma, po
Observable: AUC (ng·h/mL)

Compound: Cc1ccc(COC(=O)NC(C(=O)N[C@@H](Cc2ccccc2)[C@@H](O)C[C@H](Cc2ccccc2)NC(=O)OCc2cccnc2)C(C)C)cn1 (some centres not stated)
Observable: AUC
Number: 240
--
Compound: CC(C)C(NC(=O)OCc1ccccn1)C(=O)N[C@@H](Cc1ccccc1)[C@@H](O)C[C@H](Cc1ccccc1)NC(=O)OCc1cncnc1 (some centres not stated)
Observable: AUC
Number: 280

[a] CC(C)C(NC(=O)N(C)Cc1csc(C(C)(C)C)n1)C(=O)N[C@@H](Cc1ccccc1)C[C@H](O)[C@H](Cc1ccccc1)NC(=O)OCc1cccnc1 (some centres not stated)
[b] CC(C)C(NC(=O)OCc1csc(N2CCOCC2)n1)C(=O)N[C@@H](Cc1ccccc1)[C@@H](O)C[C@H](Cc1ccccc1)NC(=O)OCc1cccnc1 (some centres not stated)
[c] Cc1ncc(COC(=O)N[C@@H](Cc2ccccc2)[C@@H](O)C[C@H](Cc2ccccc2)NC(=O)C(NC(=O)N(C)Cc2csc(C(C)C)n2)C(C)C)s1 (some centres not stated)
[d] Cc1cccc(COC(=O)NC(C(=O)N[C@@H](Cc2ccccc2)[C@@H](O)C[C@H](Cc2ccccc2)NC(=O)OCc2cccnc2)C(C)C)n1 (some centres not stated)
[e] CC(C)c1csc(COC(=O)NC(C(=O)N[C@@H](Cc2ccccc2)C[C@H](O)[C@H](Cc2ccccc2)NC(=O)OCc2cncs2)C(C)C)n1 (some centres not stated)
Task: Please list these in order of increasing AUC. Thank you! List the labels according to the requested ordering.
Result: b, a, d, c, e
